Numbers sourced from patent US20240109962A1.

Target: T1, recombinant human LILRB2 protein (human, UniProt Q8N423 22-460, limits assumed)
T1 construct: also called recombinant LILRB2 protein
T1 sequence (Q8N423 22-460 limits assumed): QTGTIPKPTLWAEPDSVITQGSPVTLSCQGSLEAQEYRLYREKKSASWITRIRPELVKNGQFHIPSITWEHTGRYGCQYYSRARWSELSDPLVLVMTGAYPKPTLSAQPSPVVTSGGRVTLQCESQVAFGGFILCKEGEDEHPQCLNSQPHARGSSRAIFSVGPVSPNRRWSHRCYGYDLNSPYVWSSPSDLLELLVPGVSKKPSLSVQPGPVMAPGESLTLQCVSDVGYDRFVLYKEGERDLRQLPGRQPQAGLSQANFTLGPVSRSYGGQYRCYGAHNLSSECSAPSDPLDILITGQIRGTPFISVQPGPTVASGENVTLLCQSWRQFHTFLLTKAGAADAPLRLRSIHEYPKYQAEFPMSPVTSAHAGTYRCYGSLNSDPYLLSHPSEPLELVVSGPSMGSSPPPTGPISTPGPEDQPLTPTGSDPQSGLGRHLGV
Experiment: ELISA, coated recombinant human LILRB2
Design: unit not given here
Bmax reference
Could you respond with only the numeric value?

Antibody 2E1_GF1 (antibody, V domains shown) VH: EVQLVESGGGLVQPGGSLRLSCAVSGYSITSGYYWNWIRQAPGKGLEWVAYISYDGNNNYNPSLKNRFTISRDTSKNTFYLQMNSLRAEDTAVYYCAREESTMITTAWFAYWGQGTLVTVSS VL: DIQMTQSPSSLSASVGDRVTITCRASEVIYSNLAWYQQKPGKAPKLLIYGATNLASGVPSRFSGSGSGTDYTLTISSLQPEDFATYYCQHFWDTPYTFGQGTKVEIK
1.5

Lookup: Complete the entry with Bmax for Antibody 2E1_FF3 (antibody, V domains shown) VH: EVQLVESGGGLVQPGGSLRLSCAVSGYSITSGYYWNWIRQAPGKGLEWVAYISYDGNNSYNPSLKNRFTISRDTSKNTFYLQMNSLRAEDTAVYYCAREESTMITTAWFAYWGQGTLVTVSS VL: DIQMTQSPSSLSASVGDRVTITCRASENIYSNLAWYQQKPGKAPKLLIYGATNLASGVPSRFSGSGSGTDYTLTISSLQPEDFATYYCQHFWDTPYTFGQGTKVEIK
Found: 1.17

Lookup: Give Bmax for Antibody 2E1_FF4 (antibody, V domains shown) VH: EVQLVESGGGLVQPGGSLRLSCAVSGYSITSGYYWNWIRQAPGKGLEWVAYISYDGNNWYNPSLKNRFTISRDTSKNTFYLQMNSLRAEDTAVYYCAREESTMITTAWFAYWGQGTLVTVSS VL: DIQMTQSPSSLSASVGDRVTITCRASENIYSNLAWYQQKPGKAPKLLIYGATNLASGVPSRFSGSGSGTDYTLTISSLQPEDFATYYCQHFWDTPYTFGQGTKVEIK
Found: 1.59

Lookup: Could you please provide reported Bmax for Antibody 2E1_GD9 (antibody, V domains shown) VH: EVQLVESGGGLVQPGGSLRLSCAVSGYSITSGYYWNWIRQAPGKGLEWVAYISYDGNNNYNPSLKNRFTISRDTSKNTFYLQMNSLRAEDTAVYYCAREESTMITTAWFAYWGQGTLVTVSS VL: DIQMTQSPSSLSASVGDRVTITCRASENIFSNLAWYQQKPGKAPKLLIYGATNLASGVPSRFSGSGSGTDYTLTISSLQPEDFATYYCQHFWDTPYTFGQGTKVEIK ? Thanks!
Found: 1.39

Lookup: Quick one: give measured Bmax for Antibody 2E1_FH9 (antibody, V domains shown) VH: EVQLVESGGGLVQPGGSLRLSCAVSGYSITSGYYWNWIRQAPGKGLEWVAYISYDGNNLYNPSLKNRFTISRDTSKNTFYLQMNSLRAEDTAVYYCAREESTMITTAWFAYWGQGTLVTVSS VL: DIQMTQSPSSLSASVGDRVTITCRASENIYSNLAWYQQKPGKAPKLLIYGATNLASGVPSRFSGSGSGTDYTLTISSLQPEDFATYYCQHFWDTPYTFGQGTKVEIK
Found: 1.24
